Sourced from patent US20240417469A1

molecular target: T1, recombinant CD3D&E protein (human CD3-his tag) (human, UniProt P04234 22-105; P07766 23-126, limits assumed); test: SPR Biacore, Ab captured on Protein A;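 note: humanized antibodies on a Protein A chip, human CD3-his analyte flowed over in serial dilutions for 3 min, dissociation tracked 120–360 s on a Biacore T200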
T1 construct: Analyte in Biacore; also called CD3D&E-His; CD3d&ε-His
T1 sequence (P04234 22-105 limits assumed, chain 1 of 2): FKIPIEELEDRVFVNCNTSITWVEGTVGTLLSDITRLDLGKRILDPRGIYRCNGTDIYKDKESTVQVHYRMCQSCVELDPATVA
T1 sequence (P07766 23-126 limits assumed, chain 2 of 2): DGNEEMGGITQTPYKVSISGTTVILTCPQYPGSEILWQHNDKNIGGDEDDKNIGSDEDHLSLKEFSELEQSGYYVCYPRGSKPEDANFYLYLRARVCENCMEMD
Answer each item with its documented pKd.
Please treat pKd as minus the base-10 logarithm of the molar concentration.

Entry Hu153A6B1-6 (antibody, V domains shown, humanized mAb) VH: EVQLQESGPGLVKPSETLSLTCTVSGFSLTSYNIHWVRQPPGKGLEWMGRIRYNGDTSYNSALKSRLTISRDTSKNQVSLKLSSVTAADTAVYYCTRGPYGGSREPLFDYWGQGTMVTVSS VL: DIQMTQSPSSLSASVGDRVTITCKTSQNINKYLNWYQQKPGKAPKLLIYTTNNLQTGVPSRFSGSGSGTDFTLTISSLQPEDFATYYCLQHGSGYTFGQGTKLEIK : reported pKd = ?
7.68

Look at this binder and give its reported pKd. Hu155A9B1-5 (antibody, V domains shown, humanized mAb; also called 155z5) VH: EVQLQESGPGLVKPSETLSLTCTVSGFSISSYNVHWVRQPPGKGLEWMGRVRYNGDTSYNSALKSRLTISRDTSKNQASLKLSSVTAADTAVYYCTRGPYGGSSEPLFDYWGQGTMVTVSS VL: DIQMTQSPSSLSASVGDRVTITCKASQNINKYLNWYQQKPGKAPRLLIYTTNNLQTGVPSRFSGSGSGTDFTLTISSLQPEDFATYYCLQHNSGYTFGQGTKLEIK
7.21
